Below, each entry is listed alongside its reported Vd.
Test: Volume of distribution at steady state in Sprague-Dawley rat at 2 mg/kg, iv
Type: ADME, organism-based
Design: dose 2 mg/kg, route intravenous
Settings: in vivo, read-out: Vdss
Number only, in L/kg; omit the unit.

Examples with answers:
N[C@H](CNc1ncc(-c2ccc3cnccc3c2)s1)Cc1ccc(C(F)(F)F)cc1 :: 7.1
N[C@H](CNc1ncc(-c2ccc3c(c2)CC(=O)N3)s1)Cc1ccc(C(F)(F)F)cc1 :: 6.8

Now look at this one.
Query: For N[C@H](CNc1ncc(-c2ccc3[nH]c(=O)oc3c2)s1)Cc1ccc(C(F)(F)F)cc1 , what is its reported Vd?
Reply: 6.7
